# Test system: OVCAR-3 ovarian
# test_name: NCI tumour cell line growth inhibition, 48 h
readout_type: TGI

Quote TGI reported for `OC/C=C(\I)CCCOCOCc1ccccc1` please.
> 100 µM

Give a short answer stating reported TGI for `O=C1O/C(=C(/Br)c2ccc(Cl)c(Cl)c2)c2ccccc21` .
> 10 µM

In one line, give reported TGI of the entry COc1ccc(N2C(=O)C3ON(C(C(N)=O)c4ccccc4)C(c4cc5ccccc5c5ccccc45)C3C2=O)cc1 (centres undefined) .
> 50 µM

Tell us which TGI value is on record for O=c1[nH]c(=O)n(C2OC(CO)C(O)C(O)C2O)cc1F (centres undefined)
> 100 µM

Give me measured TGI, please, for this molecule: COC(C(O)c1ccc2c(c1)OCO2)P(=O)(c1ccccc1)c1ccccc1 (centres undefined)
40.3 µM

Name the recorded TGI of the molecule listed here: `N#Cc1c(-c2ccccc2)cc(Nc2cccc(C(F)(F)F)c2)n2c1nc1ccccc12`
5.58 µM

***
Consider the molecule `O=C1N[C@@H](c2c[nH]c3cc(Br)ccc23)C(=O)N[C@H]1c1c[nH]c2cc(Br)ccc12` and give its recorded TGI.
> 100 µM

Answer with the recorded TGI of C=C(CC[C@@H](C)[C@H]1CC[C@@]2(C)C3=C(CC[C@]12C)[C@@]1(C)CC[C@H](O)[C@@H](C)C1CC3)C(C)C (some centres undefined) only.
3.59 µM

Identify the reported TGI for the following entry. N#CCc1ccc(C(C#N)/C(CCCC(=O)Nc2cccc([N+](=O)[O-])c2)=N/NC(N)=S)cc1 (centres undefined)
> 100 µM

---

# Test system: MCF7 breast
# test_name: NCI tumour cell line growth inhibition, 48 h
The entries below come with measured TGI values attached.

Look over these answered cases.
// Input: `O=C1OC(c2ccco2)=N/C1=C\c1cccc([N+](=O)[O-])c1` . Output its TGI only.
> 100 µM

Give reported TGI value for `CN(C)/C=N/S(=O)(=O)c1nn2c(C=O)c(-c3ccc(Cl)cc3)nc2s1`
2.68 µM

Report TGI, nothing else, for this molecule: `Cn1c2ccccc2c2c3[nH]c(=O)[nH]c(=O)c3c3c4ccccc4n(C)c3c21`
> 100 µM

Identify measured TGI associated with C=C[C@H]1C[C@@H]2C[C@@H]3[C@H]4C/C=C\C(=O)NCCCC5NC(=O)C(=C(O)/C=C/[C@@H]4CC(=O)[C@H]3[C@@H]2[C@H]1C)C5=O (some centres undefined)
2.8 µM

Using the record for `Cc1ccc(NC(=O)NCCCOc2ccc(N3C(N)=NC(N)=NC3(C)C)cc2Cl)cc1S(=O)(=O)F` , state its measured TGI.
> 100 µM

For the molecule `O=c1oc2cc(O)ccc2c(O)c1C(c1ccccc1F)c1c(O)c2ccc(O)cc2oc1=O` , report TGI.
> 100 µM

Specify reported TGI for the molecule shown: COC(=O)C(COC(C)=O)NC(=O)/C=C/c1ccc(O)c(OC(C)=O)c1 (centres undefined)
> 100 µM

Return TGI for the following molecule: COC(=O)C(NC(=O)c1ccccc1)c1ccco1 (centres undefined)
> 100 µM

---
Hello, please tell me recorded TGI for this one: `COc1ccc(C2=Nn3c(nnc(Cc4ccc(Cl)cc4)c3=O)SC2)cc1`
> 100 µM

# return recorded TGI for input `NC(N)=N/N=C/c1c(-c2cccc([N+](=O)[O-])c2)nc2n1CCS2`
36.1 µM

Annotate the molecule `c1ccc(CSP234N5CCN2CCN3CCN4CC5)c(CSP234N5CCN2CCN3CCN4CC5)c1` with its measured TGI.
> 100 µM

Consider the molecule `COc1cc2c(c(OC)c1OC)C(=O)[C@@H]1c3ccc([N+](=O)[O-])cc3C(=O)N(CCCBr)[C@H]21` and give its recorded TGI.
> 100 µM

Give the reported value of TGI for this record: `Cc1cccc2c(N)c3cccc(C(=O)NCC[N+](C)(C)Cc4c([N+](=O)[O-])ncn4C)c3nc12`
> 47.3 µM

Tell me its TGI given NC(CCC(=O)O)C(=O)N1CCN(c2nc(N3CCCC3)c3nc(Cl)c(NCc4ccccc4)nc3n2)CC1 (centres undefined) as the entry.
25.6 µM

Supply reported TGI belonging to this molecule: `Cc1ccc(NC(=S)N/N=C(/c2ccccc2)c2ccccn2)cc1`
15.7 µM

Retrieve TGI measured for `COc1cc(OC)cc(-c2nc3cc(F)ccc3s2)c1` and print it.
> 100 µM

Consider the molecule `CC(=O)N[C@@H](Cc1ccc(O)cn1)C(=O)NCc1cccc(Cl)c1` and give its recorded TGI.
> 100 µM

Return the recorded TGI value; entry: `CC1(C)CC(=O)C(/C=N/c2nc(-c3ccccc3)cs2)=C(O)C1`
> 100 µM

Supply reported TGI belonging to this molecule: `Cc1cc(=O)n2nc(CN3CCCCC3)sc2n1`
> 100 µM

Recall and state the measured TGI for O=C1C(Cl)C(c2cccc(Cl)c2)N1c1ccc(-n2c(=S)[nH]c3ccccc3c2=O)cc1 (centres undefined) .
37.8 µM

Give me measured TGI, please, for this molecule: CC1ON2CCCC2[C@H]1C(=O)N1C2CC3CCC2(CS1(=O)=O)C3(C)C (some centres undefined)
> 100 µM

Determine its reported TGI: `COc1cc2c3c(n(CCNCCCNCCn4c5c(c6cc(OC)c(OC)cc6c4=O)C(=O)c4ccccc4-5)c(=O)c2cc1OC)-c1ccccc1C3=O`
2.9 µM

Please look at this molecule and report its TGI: Cc1ccc(NC(=O)c2sc3nc(C)c(C(O)c4ccccc4)cc3c2N)cc1 (centres undefined)
> 57.6 µM

Annotate the molecule `O=c1c2cc(S(=O)(=O)O)ccc2nc(COc2ccc(Oc3ccc(Cl)cc3Cl)cc2)n1-c1ccc(Cl)cc1Oc1c(Cl)cccc1Cl` with its measured TGI.
45.6 µM

Query TGI for `Cc1ccc(NC(=O)c2cccc(OP(=O)(O)Nc3ccc(C)cc3)c2)cc1`
> 100 µM

---

# Test system: HT29 colon
# test_name: NCI tumour cell line growth inhibition, 48 h
Measured TGI by item

Answer with reported TGI of `COc1ccc(/C(Cl)=C(\C=O)c2ccc([N+](=O)[O-])cc2)cc1`
29.9 µM

Continuing:
Give a short answer stating reported TGI for `c1ccc2c(c1)nc1n2CNC1` .
> 100 µM

Dear colleague, please send me the reported TGI for `COc1ccccc1Cn1cc2c(c1-c1ccccc1)CCc1cnoc1-2` when you can.
7.3 µM

Indicate its recorded TGI; the compound in question is `Cc1ccc(NC(=O)c2cccc(OP(=O)(O)Nc3ccc(C)cc3)c2)cc1`
> 100 µM

Answer with reported TGI of `COc1cc(/C=C2\N=C(c3ccccc3)N(c3nc4c(OC)ccc(OC)c4s3)C2=O)ccc1O`
> 100 µM

Please give measured TGI of the following entry: `CCCCOC(=O)NC(=O)c1cn(C2CCCCC2)c(=O)[nH]c1=O`
> 100 µM

Item `CCOc1ccc2c(c1)[n+]([O-])c(-c1nc3ccccc3s1)c(N)[n+]2[O-]` : provide TGI
> 100 µM

Consider the compound `COc1cc(OC)c2c(=O)c(OC)c(-c3ccc4c(c3)OCO4)oc2c1` . State its measured TGI.
> 100 µM

State, in one line, measured TGI of `COC(=O)c1cc(C)c(C)c2c1NC(=O)CNC2=O`
> 100 µM

Identify the reported TGI for the following entry. C=C[C@H]1C[C@@H]2C[C@@H]3[C@H]4C/C=C\C(=O)NCCCC5NC(=O)C(=C(O)/C=C/[C@@H]4CC(=O)[C@H]3[C@@H]2[C@H]1C)C5=O (stereo not given in full)
3.58 µM

---

# Tested on: OVCAR-4 ovarian
# test_name: NCI tumour cell line growth inhibition, 48 h; in the data active means GI50 below about 0.43 µM; inactive means the rest
Respond with a class label; see true (active), false (inactive)

Previously resolved entries follow.
Can you look up the reported call for COc1cc(/C=C2\CCCC3=C2NC(C)=NC3c2cc(OC)c(OC)c(OC)c2)cc(OC)c1OC (stereo not given) for me?
false

I would be grateful if you could indicate the recorded call for `COC(=O)c1c(C)[nH]c(/C=C2\N=C(c3ccc[nH]3)C=C2OC)c1C` .
false

Field: outcome | Entry: `Cc1ccc(C(=O)Nc2ccc(CN3CCN(C)CC3)c(C(F)(F)F)c2)cc1C#Cc1cnc(N)c2ccccc12`
true

Give the logged outcome of this assay for the following compound: `COc1cc2c3c(n(C)c(=O)c2cc1OC)-c1cc2c(cc1/C3=C\CNCCCN)OCO2`
false

Each compound tested received a call. Report the one for `CCC(=O)c1c(C(F)(F)F)n([O-])c2ccc(C)cc2[n+]1=O` .
false

More entries:
What did the test return for `COc1cc(NS(=O)(=O)c2ccc(-c3cnc(C4CC4)o3)cc2)ccc1F` ?
false

// return assay outcome for `CCc1oc2ccccc2c1C(=O)c1cc(I)c(O)c(I)c1`
false

State the result this test recorded for `COc1ncc(-c2ccc3ncnc(Nc4cccc(Cl)c4)c3c2)cc1NS(=O)(=O)CCN1CCOCC1` .
false

Short answer needed: outcome of this test for `O=C1/C(=C/c2ccc(O)cc2)CSc2ccc(Cl)cc21` ?
false

Each compound tested received a call. Report the one for `O=C(/C(=C/c1cccc([N+](=O)[O-])c1)c1ccccc1)c1ccccc1` .
false
